- Tested on: A-375
- run_description: Induction of apoptosis in human A375 cells assessed as inhibition of DNA synthesis at 0.8 to 1.6 uM after 24 hrs by BrdU staining-based ELISA
- Type: functional, cell-based
The source made the active and inactive calls. The rule behind the calls is not given here.
recorded_metric: Activity

1) CC[C@@]1(O)C(=O)OCc2c1cc1n(c2=O)Cc2cc3c([N+](=O)[O-])cccc3nc2-1 [RUBITECAN]: Active
2) CC[C@@]1(O)C(=O)OCc2c1cc1n(c2=O)Cc2cc3c(CN(C)C)c(O)ccc3nc2-1.Cl [TOPOTECAN HYDROCHLORIDE]: Active
3) CC[C@@]1(O)C(=O)OCc2c1cc1n(c2=O)Cc2cc3ccccc3nc2-1 [CAMPTOTHECIN]: Active
4) CC[C@@]1(O)C(=O)OCc2c1cc1n(c2=O)Cc2cc3c4c(ccc3nc2-1)OCOC4: Active
